Give fluorescence slope for every item shown.
Molecular target: Voltage-gated potassium channel subunit beta-2 (Rattus norvegicus)
Experiment: KvBeta enzyme negative modulators, primary screen, biochemical, NADPH fluorescence (AID 622);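 note: slope of raw intensity against log time taken from 70 to 1610 s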
Details: recombinant KvBeta, 4-cyanobenzaldehyde reduction, at 10 µM, stronger effect = higher value
Active and inactive are the calls of the source.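 Rule for the calls: active = fluorescence slope higher than the sample average by over 3 SD (cut at about -0.22 in these data, passing the limit was not always enough); inactive = the rest.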

• Cn1c(=O)n(CC(=O)Nc2ccccc2)c2ccccc21 = -0.453 (inactive)
• COc1ccc(OC)c(NS(=O)(=O)c2ccc(N3CCCC3=O)cc2)c1 = -0.465 (inactive)
• O=C(O)C(O)c1ccco1 (stereo not drawn) = -0.43 (inactive)
• Cc1ccc(OCC(O)CN2C(=O)NC(C)(C)C2=O)cc1C (stereo not drawn) = -0.537 (inactive)
• O=C(c1ccccc1)n1c(=S)nc2ccccn21 = -0.421 (inactive)
• Cn1cc(Br)c(C(=O)NC2CCCCC2)n1 = -0.408 (inactive)
• COC(=O)c1ccc(NC(=O)CN2CCCC2)cc1 = -0.514 (inactive)
• COc1ccc(C2NC3=C(CCC3)C3(C#N)C(OC)(OC)N=C(N)C23C#N)cc1 (stereo not drawn) = -0.438 (inactive)

Can you give me fluorescence slope for all of these, one by one?
1. CCCNS(=O)(=O)c1ccc(C(=O)NCC2CCCO2)cc1 (stereo not drawn)
2. N#Cc1ccc(-c2csc(NC(=O)C3CC3)n2)cc1
3. CCCn1nc(Oc2nc(SC)nc(N(C)C)n2)ccc1=O
4. CN1CCC(NC(=O)c2cccs2)CC1
5. Cc1coc2cc3oc(=O)c4c(c3cc12)CCC4

1: -0.529 (inactive); 2: -0.502 (inactive); 3: -0.491 (inactive); 4: -0.547 (inactive); 5: -0.566 (inactive)

----------
Biological target: Voltage-gated potassium channel subunit beta-2 (Rattus norvegicus) (UniProt P62483)
Sequence (P62483 whole entry, looked up): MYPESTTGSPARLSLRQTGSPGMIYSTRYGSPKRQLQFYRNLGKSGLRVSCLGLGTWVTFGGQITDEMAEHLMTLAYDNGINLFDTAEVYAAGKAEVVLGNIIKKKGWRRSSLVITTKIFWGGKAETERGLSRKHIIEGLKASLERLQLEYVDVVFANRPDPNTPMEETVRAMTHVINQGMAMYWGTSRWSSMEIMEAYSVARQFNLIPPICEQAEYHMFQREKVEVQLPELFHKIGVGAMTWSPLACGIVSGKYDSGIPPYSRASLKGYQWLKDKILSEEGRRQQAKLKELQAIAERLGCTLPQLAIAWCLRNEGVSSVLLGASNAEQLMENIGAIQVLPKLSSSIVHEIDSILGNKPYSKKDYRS
Experiment: KvBeta enzyme negative modulators, primary screen, biochemical, NADPH fluorescence (AID 622);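 note: slope of raw intensity against log time taken from 70 to 1610 s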
Conditions: recombinant KvBeta, 4-cyanobenzaldehyde reduction, at 10 µM, stronger effect = higher value
Exercise: state measured fluorescence slope for each of the molecules provided.
One number for each entry.

The examples below pair each entry with its known result.
* CC(=O)c1ccc(NS(=O)(=O)c2ccccc2)cc1 | -0.467
* Cc1ccc(-c2cc(C(=O)O)n[nH]2)o1 | -0.612
* COc1ccc2[nH]c(=O)c(CN(C(=O)c3ccncc3)C(C)C)cc2c1 | -0.448
* CCCC(=O)NCCc1cc2c(C)ccc(C)c2[nH]c1=O | -0.557
* Cc1cc(C)n(-c2ccc3cccc(NS(C)(=O)=O)c3n2)n1 | -0.392

I would be grateful if you could provide fluorescence slope for each of the following entries.
1. CC1=C(C(=O)Nc2ccc(F)cc2)C(c2cccc(C)c2)n2nc(CCCO)nc2N1 (centres undefined)
2. CCC1(C)Cc2c(C#N)c(N)n(N)c(=S)c2CO1 (centres undefined)
3. N#Cc1cc(Oc2cccc3cccnc23)c(-n2nnc3ccccc32)cc1C#N

[-0.405, -0.422, -0.438]

Dear colleague, could you please provide fluorescence slope for the molecules listed below?
1. Cc1cc(C)nc(SCc2csc(N)n2)n1
2. CCCOc1ccc(N2CC(C(=O)Nc3ccc4c(c3)OCO4)CC2=O)cc1 (centres undefined)
3. O=C(NCCCn1ccnc1)c1cnn2c1NC(c1ccccc1)CC2C(F)(F)F (centres undefined)
4. Cc1cc(=O)n2[nH]c(N3C(=O)CCC3=O)nc2n1

1. -0.347
2. -0.444
3. -0.389
4. -0.397

----------
Test: inhibitors of TNFa-induced NFkB p65 translocation, primary screen, imaging, HUVEC, MLSMR starter and 10KST1 sets (AID 438);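 note: compound added about 3h40 before a 20 min TNFalpha stimulation; signal is the nuclear over cytoplasmic p65 intensity ratio per well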
Settings: HUVEC TNFa-induced p65 nuclear translocation; at 2 µM, stronger effect = higher value, 0% TNFa-plus-vehicle, 100% no-TNFa wells
Assignment: determine reported inhibition for the given molecules.
One number for each entry, in %.

- Cc1nn(-c2ccc(F)cc2)c2c1cc(C#N)c1nc3ccccc3n12: 9.6
- O=C(OCc1cc2ccccc2[nH]c1=O)c1ccco1: 5.6

Please report inhibition for every entry that follows.
1. CC(=O)c1cc(Cl)ccc1OC(=O)c1ccco1
2. Cc1ccc(Cn2ncc3c(N4CCOCC4)ncnc32)cc1
3. COc1cccc(C2/C(=C(\O)c3ccc(OC)c(OC)c3)C(=O)C(=O)N2c2cc(C)on2)c1 (stereo unspecified)

[0.5, -1.3, 1.5]

----------
Assignment: determine reported nuclei count for the given compounds.
Assay: inhibitors of mutant huntingtin aggregation, primary screen, imaging, exon1htt(103Q)mCFP cells, high-content imaging (AID 483);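 note: compound exposure lasted 3 days before fixation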;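 for nuclei count: percent of the per-plate median nuclei count of sample wells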
Conditions: exon1htt(103Q)mCFP cell line, aggregate imaging, at 2 µM; measured here: cell count, toxicity
Answers are plain numbers, in %.

Previously resolved entries follow.
- Cc1oc2c(CN3CCOCC3)c(O)ccc2c(=O)c1-c1ccc(Br)cc1: 105
- COC(=O)c1c(N)sc(C(=O)N2CCOCC2)c1C: 82.3
- COc1cccc(CNC(=O)C2CCN(C(=O)N(C)C)CC2)c1: 52.8
- CCOC(=O)C(C)Sc1nnc(Cc2cc(=O)[nH]c(=O)[nH]2)n1-c1ccc(Cl)cc1 (centres undefined): 107
- COC(=O)[C@@H](NC(=O)NCc1ccccc1Cl)C(C)C: 100

Please look at the items below and tell me nuclei count for each one, in order.
1. Cc1ccc2cc3cc(C(=O)NCCN4CCOCC4)oc3nc2c1
2. Nc1ncnc2oc(-c3ccco3)c(-c3ccco3)c12
3. CC(=O)c1cc(Cl)ccc1OC(=O)c1ccco1
4. CCSc1nnc2c(n1)OC=Nc1ccc(Br)cc1-2

105
84.7
106
62.3

For each entry beneath this line, provide reported nuclei count.
1. Cn1c(=O)c2c(nc(NCCNC(=O)c3ccco3)n2Cc2ccccc2Cl)n(C)c1=O
2. OC1C[N+]2(CCCCC2)C1
3. Cc1ccc2cc3cc(C(=O)N4CC(C)CC(C)C4)oc3nc2c1 (centres undefined)
4. CCOC(=O)c1cc2n(n1)C(C(F)(F)C(F)(F)F)CC(C)N2 (centres undefined)
5. CN(C)C(=O)c1ccc(COc2ccccc2Br)o1

[98.3, 104, 86.4, 113, 71.4]

----------
Experiment: inhibitors of mutant huntingtin aggregation, primary screen, imaging, exon1htt(103Q)mCFP cells, high-content imaging (AID 483);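 note: compound exposure lasted 3 days before fixation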
Conditions: exon1htt(103Q)mCFP cell line, aggregate imaging, at 2 µM; stronger effect = higher value
Calls of active or inactive are those of the source.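 The calls were made as follows: active = visual image review flags a hit and inhibition of aggregation exceeds 20%; inconclusive = visual hit but inhibition at or below 20%; inactive = no hit on visual image review.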
Can you tell me inhibition of aggregation for the items I'm about to list?

• O=C(CSc1nccn1Cc1ccccc1)Nc1nccs1 = 10.4% (inactive)
• Cc1onc(-c2ccccc2)c1C(=O)Nc1ccc(S(=O)(=O)N2CCCCC2)cc1 = -10.9% (inactive)

Each of the following entries comes with a recorded value; kindly state inhibition of aggregation for each.
1. O=S(=O)(Nc1ccccn1)c1ccc(Oc2ccccc2)cc1
2. CCS(=O)(=O)N1CCCC(C(=O)NCc2cccc(OC)c2)C1 (stereo unspecified)

["0.4% (inactive)", "-59.8% (inactive)"]

Take each entry in turn and give its inhibition of aggregation.
1. O=C(CN1C(=O)COc2ccccc21)N(Cc1cccnc1)Cc1ccccc1F
2. Cc1cc(C)n2nc(SCc3cc(=O)n4ccccc4n3)nc2n1
3. CCOc1ccc(NC(=O)CN2C(=O)C3CCCN3C2=O)cc1 (stereo unspecified)

-5.5% (inactive)
13% (inactive)
-2.3% (inactive)

Batch request: inhibition of aggregation for each of the following compounds.
1. O=C(Cn1cc2c(n1)CCCC2)NCCc1ccccc1
2. CC(C)N(C(=O)CSc1nnc(NC(=O)C2CCC2)s1)C(C)C
3. N#Cc1ccc(-c2csc(NC(=O)C3CC3)n2)cc1
4. Nc1nc(-c2ccc(Cl)cc2)nn1C(=O)c1cccnc1

["0.9% (inactive)", "-7.3% (inactive)", "33.4% (inactive)", "-4.2% (inactive)"]

----------
Biological target: Voltage-gated potassium channel subunit beta-2 (Rattus norvegicus)
Assay: KvBeta positive modulators, primary screen, biochemical, NADPH fluorescence (AID 623);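 note: fluorescence intensity change per second fitted from 20 to 320 s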
Details: Recombinant KvBeta, NADPH fluorescence decrease slope, 10 min; at 10 µM; stronger effect = lower value
Quantity name: NADPH fluorescence slope
Give bare numbers.

// below: answered compounds
- CCCc1nc(N2CCCC2)c(C#N)c2c1CCCC2: -9.6e-05
- N#Cc1c(NCCCO)nc(-c2ccccc2)c2c1CCCC2: -0.000107

Hi, could you look up NADPH fluorescence slope for each item in my list?
1. CCOC(=O)c1ccc(S(=O)(=O)NC2CCCCCCC2)n1C
2. CCOc1ccc(C2=Nn3c(nnc3-c3ccccc3OC)SC2)cc1
3. CC(C)c1nnc(SCC(=O)NCc2ccco2)n1C
4. CC(=O)c1cnc2cc(-c3ccccc3)nn2c1C

5e-06
-1.9e-05
1.5e-05
-5.4e-05

Could you report NADPH fluorescence slope for every entry in the following list?
1. CCSc1nc2c(c(=O)[nH]1)C(c1cccnc1)C(C(=O)OC(C)C)=C(C)N2 (stereo unspecified)
2. CN(CCNC(=O)c1ccc(/C=N/O)nc1)Cc1ccccc1
3. Cc1ccc(-c2nn(-c3ccccc3)cc2CN(Cc2ccccc2)C(=O)CCC(=O)O)o1
4. CN(Cc1nc(-c2ccncc2)no1)S(=O)(=O)c1ccccc1
5. O=C(CN1C(=O)CCS(=O)(=O)c2ccccc21)NCc1ccc(F)cc1

-1.6e-05
-5.2e-05
-2.6e-05
-4.4e-05
-7.6e-05
